Measured Enzyme Activity Endpoint Assay: Fc, listed per entry.
biological target: pooled human IgG (human IgG1,2,3 and 4)
Field format: number, assumed ng/µL, no unit text.

Problem: Please give measured Enzyme Activity Endpoint Assay: Fc of the following entry: PRT-508 (protein) MITSVWTKGVTPPTDFIKGEDVFHAPYKAGQGWYDITKTFNGKDDLLCGAATAGNMLHWWFDQNKEEIEAYLKKHPEKQKIMFGDQELLDVRKVINTKDSQTNSALFNYFKDKAFPNLSARRLGVMPDLVLDMFINGYYLNVYKTQTTDVNRTYQTKDRRGGIFDAVFTRGDQSKLLTERHDLKNKTLKEISDLIKQELTEGKALGLSHTYANVRINHVINLWGADFDSNGNLEAIYVTDSDSNASIGMKKYFVGVNSAGKVAISAKEIKEDNIGAQVLGLFTLSTGQDIWNQTNLEHHHHHH
Solution: 0

Problem: Specify Enzyme Activity Endpoint Assay: Fc for PRT-193 (protein) MANQEIRYSEVTPYHVTSVWTKGVTPPANFTQGEDVFHAPYVANQGWYDITKTFNGKDDLLCGAATAGNMLHWWFDQNKDQIKRYLEEHPEKQKINFNGEQMFDVKEAIDTKNHQLDSKLFEYFKEKAFPYLSTKHLGVFPDHVIDMFINGYRLSLTNHGPTPVKEGSKDPRGGIFDAVFTRGDQSKLLTSRHDFKEKNLKEISDLIKKELTEGKALGLSHTYANVRINHVINLWGADFDSNGNLKAIYVTDSDDKKLTIGDERIGMKKYFVGVNSAGKVAISAKEIKEDNIGAQVLGLFTLSTGQDSWNQTN and stop.
Solution: 193
